Experiment: Cmax in Sprague-Dawley rat at 10 mg/kg, po
Type: ADME, organism-based
Parameters: dose 10 mg/kg, route oral
Conditions: in vivo
Property Label: Cmax (µM)
Write the answer as a number in µM, unit excluded.

Supply Cmax value. Item: CC(C)C[C@H](NC(=S)Nc1ccccc1)C(=O)N[C@H]1CCOC1O (stereo partly specified)
5.6

* * *

Test: AUC (0-infinity) in Sprague-Dawley rat at 10 mg/kg, po
Type: ADME, organism-based
Design: time infinity, dose 10 mg/kg, route oral
Details: plasma
Property Label: AUC(0-inf) (µM·h)
Write the answer as a number in µM·h, unit excluded.

Supply AUC(0-inf) value. Item: CC(C)C[C@H](NC(=S)Nc1ccccc1)C(=O)N[C@H]1CCOC1O (stereo partly specified)
5.7
